This collection of values is drawn from patent US20240124483A1.

# Assayed target: UniProt P61586
# Sequence (P61586 whole entry, species assumed, the tested form may be a part): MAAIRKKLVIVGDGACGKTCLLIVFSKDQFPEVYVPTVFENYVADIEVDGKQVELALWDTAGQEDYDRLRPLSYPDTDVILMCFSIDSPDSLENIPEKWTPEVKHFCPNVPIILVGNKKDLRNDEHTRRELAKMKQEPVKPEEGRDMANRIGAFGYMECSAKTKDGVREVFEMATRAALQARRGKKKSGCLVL
# Test method notes: Ras GTP Binding Domain Inhibition Assay, Rho-A
# Condition set: without SOS, read-out: Rho-A: % inh.
Value type: inhibition at 20 µM

Task: // output inhibition at 20 µM; input COc1cccc(-c2sc3nc(-c4nccn4C)nc(N[C@H]4C[C@H](OC)C4)c3c2-c2ccccc2)c1F ; system UniProt P61586
Output: 26 to 45%

Task: Name the value of inhibition at 20 µM reported for COCC1CN(c2nc(-c3nccn3C)nc3sc(-c4ccn(C(C)C)n4)c(C)c23)CCO1 (racemic) when tested on UniProt P61586.
Output: 76 to 100%

Task: Please report inhibition at 20 µM with UniProt P61586 for item COCCNc1nc(-c2nccn2C)nc2sc(-c3ccccc3)c(-c3ccccc3)c12 .
Output: 46 to 75%

Task: Supply inhibition at 20 µM measured with UniProt P61586 for COCCN(C)c1nc(-c2nccn2C)nc2sc(-c3ccccc3)c(-c3ccccc3)c12 .
Output: 26 to 45%

Task: Give inhibition at 20 µM; test system UniProt P61586; compound COc1cccc(Nc2nc(-c3nccn3C)nc3sc(-c4ccn(C(C)C)n4)c(C)c23)c1
Output: 46 to 75%

Task: Enter inhibition at 20 µM (test system UniProt P61586) for COC1CCN(c2nc(-c3nccn3C)nc3sc(-c4ccn(C)n4)c(-c4ccccc4)c23)CC1
Output: 0%

Task: Provide inhibition at 20 µM, recorded with UniProt P61586, of Cc1c(-c2ccn(C(C)C)n2)sc2nc(-c3nccn3C)nc(NCCN3CCS(=O)(=O)CC3)c12
Output: 46 to 75%

Task: Report inhibition at 20 µM under test system UniProt P61586 for CO[C@H]1C[C@H](CNc2nc(-c3nccn3C)nc3sc(-c4ccn(C(C)C)n4)c(C)c23)C1 .
Output: 46 to 75%

Task: Quote UniProt P61586 inhibition at 20 µM for entry COc1cc(-c2sc3nc(-c4nccn4C)nc(N[C@@H]4CC[C@H](OC)C4)c3c2-c2ccccc2)ccn1 (racemic) .
Output: 0%

Task: State, for UniProt P61586, measured inhibition at 20 µM of the compound listed here: CO[C@@H]1CC[C@H](Nc2nc(-c3nccn3C)nc3sc(-c4ccn(C(C)C)n4)c(-c4ccccc4)c23)C1 (single isomer, unassigned)
Output: 26 to 45%

Task: Retrieve inhibition at 20 µM on UniProt P61586; query COCCCn1c(-c2nccn2C)nc2sc(-c3ccn(C(C)C)n3)c(C)c2c1=O
Output: 0%

Task: GET inhibition at 20 µM | system: UniProt P61586 | item: COCCOc1nc(-c2nccn2C)nc2sc(-c3ccn(C(C)C)n3)c(C)c12
Output: 0%

Task: Retrieve inhibition at 20 µM on UniProt P61586; query COCCCNc1nc(-c2nccn2C)nc2sc(-c3ccccc3)c(-c3ccccc3)c12
Output: 46 to 75%

Task: Lab note: record inhibition at 20 µM of COCCCCOc1nc(-c2nccn2C)nc2sc(-c3ccn(C(C)C)n3)c(C)c12 tested on UniProt P61586.
Output: 0%

Task: Please report inhibition at 20 µM with UniProt P61586 for item CO[C@H]1CNC[C@@H](Nc2nc(-c3nccn3C)nc3sc(-c4ccn(C(C)C)n4)cc23)C1 .
Output: 46 to 75%
